- METHOD: Partition coefficient (logP)
- Assay type: physicochemical
- CONDITIONS_USED: octanol/water
EXPERIMENTAL_ENDPOINT: logP
The answer should be a number; do not append a unit.

Challenge: Looking for the measured logP of C[C@H](Cc1ccc2c(c1)OC(C(=O)OCC(C)(C)C)(C(=O)OCC(C)(C)C)O2)NC[C@H](O)c1cccc(Cl)c1 , can you help?
Response given: 2.16

Challenge: Looking for the measured logP of CC(C)OC(=O)C1(C(=O)OC(C)C)Oc2ccc(C[C@@H](C)NC[C@H](O)c3cccc(Cl)c3)cc2O1 , can you help?
Response given: 1.29

Challenge: Looking for the measured logP of C[C@H](Cc1ccc2c(c1)OC(C(=O)OCC1CCC1)(C(=O)OCC1CCC1)O2)NC[C@H](O)c1cccc(Cl)c1 , can you help?
Response given: 2.34

###

- MEASUREMENT_TARGET: Beta-3 adrenergic receptor (Rattus norvegicus) (UniProt P26255)
- Sequence (P26255 whole entry): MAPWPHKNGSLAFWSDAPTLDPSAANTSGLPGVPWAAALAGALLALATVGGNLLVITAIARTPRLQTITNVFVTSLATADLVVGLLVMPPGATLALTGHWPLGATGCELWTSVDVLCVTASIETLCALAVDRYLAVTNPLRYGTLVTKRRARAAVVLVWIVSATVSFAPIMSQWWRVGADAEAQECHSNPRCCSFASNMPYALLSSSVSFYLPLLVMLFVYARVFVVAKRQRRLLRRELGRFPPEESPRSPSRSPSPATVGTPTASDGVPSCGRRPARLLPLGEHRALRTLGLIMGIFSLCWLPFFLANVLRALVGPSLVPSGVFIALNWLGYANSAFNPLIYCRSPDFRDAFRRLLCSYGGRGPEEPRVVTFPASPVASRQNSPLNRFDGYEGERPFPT
- METHOD: Beta-3-adrenergic activity measured by percent response against free fatty acid (FFA) in rat plasma at a dosage of 0.1 mg/kg
- Assay type: functional, organism-based
- Parameters: dose 0.1 mg/kg
EXPERIMENTAL_ENDPOINT: Response (%)
Quick reminder: number only, in %, skip the unit.

Here are 5 compounds together with their reported answers.
{"columns": ["COMPOUND", "Response (%)"],
 "data": [
  ["CCOC(=O)C1(C(=O)OCC)Oc2ccc(C[C@@H](C)NC[C@H](O)c3cccc(Cl)c3)cc2O1", 114],
  ["C[C@H](Cc1ccc2c(c1)OC(C(=O)OCCCCCc1ccccc1)(C(=O)OCCCCCc1ccccc1)O2)NC[C@H](O)c1cccc(Cl)c1", 93],
  ["C[C@H](Cc1ccc2c(c1)OC(C(=O)OCC1CCCCC1)(C(=O)OCC1CCCCC1)O2)NC[C@H](O)c1cccc(Cl)c1", 22],
  ["C[C@H](Cc1ccc2c(c1)OC(C(=O)OCC(C)(C)C)(C(=O)OCC(C)(C)C)O2)NC[C@H](O)c1cccc(Cl)c1", 134],
  ["COc1ccc(COC(=O)C2(C(=O)OCc3ccc(OC)cc3)Oc3ccc(C[C@@H](C)NC[C@H](O)c4cccc(Cl)c4)cc3O2)cc1", 8]
]}

Challenge: Please provide the recorded Response for CCC(CC)OC(=O)C1(C(=O)O)Oc2ccc(C[C@@H](C)NC[C@H](O)c3cccc(Cl)c3)cc2O1 (some centres not stated) , tested on Beta-3 adrenergic receptor (Rattus norvegicus) (UniProt P26255).
Response given: 52

Challenge: Please provide the recorded Response for CC(OC(=O)OC1CCCCC1)OC(=O)C1(C(=O)OC(C)OC(=O)OC2CCCCC2)Oc2ccc(C[C@@H](C)NC[C@H](O)c3cccc(Cl)c3)cc2O1 (some centres not stated) , tested on Beta-3 adrenergic receptor (Rattus norvegicus) (UniProt P26255).
Response given: 17

###

- MEASUREMENT_TARGET: Beta-3 adrenergic receptor (Rattus norvegicus) (UniProt P26255)
- METHOD: Effective dose required for beta-3-adrenergic activity against free fatty acid (FFA) in rat plasma
- Assay type: functional
EXPERIMENTAL_ENDPOINT: ED50 (mg/kg)
Quick reminder: number only, in mg/kg, skip the unit.

{"columns": ["COMPOUND_STRING", "MEASUREMENT_TARGET", "MEASURE_UNIT", "MEASUREMENT"],
 "data": [
  ["CC(C)OC(=O)C1(C(=O)OC(C)C)Oc2ccc(C[C@@H](C)NC[C@H](O)c3cccc(Cl)c3)cc2O1", "Beta-3 adrenergic receptor (Rattus norvegicus) (UniProt P26255)", "mg/kg", 0.061],
  ["C[C@H](Cc1ccc2c(c1)OC(C(=O)OCCC(C)(C)C)(C(=O)OCCC(C)(C)C)O2)NC[C@H](O)c1cccc(Cl)c1", "Beta-3 adrenergic receptor (Rattus norvegicus) (UniProt P26255)", "mg/kg", 0.08],
  ["C[C@H](Cc1ccc2c(c1)OC(C(=O)[O-])(C(=O)[O-])O2)NC[C@H](O)c1cccc(Cl)c1.[Na+].[Na+]", "Beta-3 adrenergic receptor (Rattus norvegicus) (UniProt P26255)", "mg/kg", 0.24]
]}

Challenge: Looking for the measured ED50 of C[C@H](Cc1ccc2c(c1)OC(C(=O)OCCc1ccccc1)(C(=O)OCCc1ccccc1)O2)NC[C@H](O)c1cccc(Cl)c1 , can you help?
Response given: 0.071

Challenge: Looking for the measured ED50 of CCOC(=O)C1(C(=O)OCC)Oc2ccc(C[C@@H](C)NC[C@H](O)c3cccc(Cl)c3)cc2O1 , can you help?
Response given: 0.034

Challenge: Looking for the measured ED50 of C[C@H](Cc1ccc2c(c1)OC(C(=O)OCC1CCC1)(C(=O)OCC1CCC1)O2)NC[C@H](O)c1cccc(Cl)c1 , can you help?
Response given: 0.071

Challenge: Looking for the measured ED50 of CC(C)CCOC(=O)C1(C(=O)OCCC(C)C)Oc2ccc(C[C@@H](C)NC[C@H](O)c3cccc(Cl)c3)cc2O1 , can you help?
Response given: 0.026

Challenge: Looking for the measured ED50 of C[C@H](Cc1ccc2c(c1)OC(C(=O)OCC(C)(C)C)(C(=O)OCC(C)(C)C)O2)NC[C@H](O)c1cccc(Cl)c1 , can you help?
Response given: 0.027

Challenge: Looking for the measured ED50 of C[C@H](Cc1ccc2c(c1)OC(C(=O)OCCc1cccs1)(C(=O)OCCc1cccs1)O2)NC[C@H](O)c1cccc(Cl)c1 , can you help?
Response given: 0.076

Attribution: ChEMBL document CHEMBL1131783
